From: patent EP4725941A1

# tgt: MEK1 (Homo sapiens)
# Construct: purchased Thermo Fisher Scientific Inc. (MEK1, CRAF); Carna Biosciences, Inc. (ERK2)
# Sequence (Q02750 whole entry): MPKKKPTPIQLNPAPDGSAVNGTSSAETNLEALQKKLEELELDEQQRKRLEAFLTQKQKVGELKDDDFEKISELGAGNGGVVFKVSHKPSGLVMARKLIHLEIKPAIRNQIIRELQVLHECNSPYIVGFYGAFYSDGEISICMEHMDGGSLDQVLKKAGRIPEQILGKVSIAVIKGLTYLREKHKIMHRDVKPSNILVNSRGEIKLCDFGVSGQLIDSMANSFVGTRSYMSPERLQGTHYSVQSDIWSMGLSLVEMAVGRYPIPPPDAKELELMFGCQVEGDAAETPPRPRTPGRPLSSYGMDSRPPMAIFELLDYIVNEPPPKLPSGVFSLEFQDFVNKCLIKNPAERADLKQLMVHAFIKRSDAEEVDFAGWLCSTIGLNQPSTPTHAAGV
# assayNotes: MEK1-inhibiting activity, fluorescent polarization method (CRAF/MEK1/ERK2 cascade, IMAP)
# Assay type: biochemical
This listing pairs compounds with measured IC50.
// units = nM; emit number, no label

Known results for compounds:
>>> observedresult("CC(O)CNS(=O)(=O)Nc1nccc(Cc2cc(C(N)=O)c(Nc3ccc(I)cc3F)c(F)c2F)c1F (racemic)")
6
>>> observedresult("CNS(=O)(=O)Nc1nccc(Cc2cc(C(=O)NC3CC3(F)F)c(Nc3ccc(I)cc3F)c(F)c2F)c1F (racemic)")
97
>>> observedresult("CNS(=O)(=O)Nc1nccc(Cc2cc(C(=O)N[C@@H]3C[C@H]3C)c(Nc3ccc(I)cc3F)c(F)c2F)c1F (racemic)")
93

Attention now shifts to the item below.
Please supply the value of reported IC50 for the item CNS(=O)(=O)Nc1nccc(Cc2cc(C(=O)N[C@H]3C[C@H]3C)c(Nc3ccc(I)cc3F)c(F)c2F)c1F (racemic)
19
